Tested on: SK-MEL-2 multi-cell spheroids, viability
testDescription: Anticancer human tumor SK-MEL-2 cell line growth inhibition [TAK];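 also: spheroids exposed to drugs for seven days before readout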
particulars: compound alone; run of 02/20/2020
pIC50: −log10 of the molar value.

- compound: "CC(C)NCC(C(=O)N1CCN(c2ncnc3c2C(C)CC3O)CC1)c1ccc(Cl)cc1 (stereo unspecified)"
  pIC50: "< 4.52"

====

Test system: SK-MEL-2 multi-cell spheroids, viability
testDescription: Anticancer human tumor SK-MEL-2 cell line growth inhibition [TAK];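 also: spheroids exposed to drugs for seven days before readout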;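 as to viability, T/C: percent of DMSO vehicle control luminescence so 100% = untreated viability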
particulars: second compound 9.49 µM; first compound 0.001 µM; stronger effect = lower value

- compound: "COC1CC2CCC(C)C(O)(O2)C(=O)C(=O)N2CCCCC2C(=O)OC(C(C)CC2CCC(OCCO)C(OC)C2)CC(=O)C(C)C=C(C)C(O)C(OC)C(=O)C(C)CC(C)C=CC=CC=C1C (centres undefined) + CC(C)NCC(C(=O)N1CCN(c2ncnc3c2C(C)CC3O)CC1)c1ccc(Cl)cc1"
  viability, T/C (%): 30.7
- compound: "CC(C)n1nc(-c2ccc3oc(N)nc3c2)c2c(N)ncnc21 + CC(C)NCC(C(=O)N1CCN(c2ncnc3c2C(C)CC3O)CC1)c1ccc(Cl)cc1"
  viability, T/C (%): 54.4
- compound: "CC(C)CC(NC(=O)C(Cc1ccccc1)NC(=O)c1cnccn1)B(O)O (centres undefined) + CC(C)NCC(C(=O)N1CCN(c2ncnc3c2C(C)CC3O)CC1)c1ccc(Cl)cc1"
  viability, T/C (%): 109
- compound: "CC(C)CC(NC(=O)CNC(=O)c1cc(Cl)ccc1Cl)B1OC(=O)CC(CC(=O)O)(C(=O)O)O1 (centres undefined) + CC(C)NCC(C(=O)N1CCN(c2ncnc3c2C(C)CC3O)CC1)c1ccc(Cl)cc1"
  viability, T/C (%): 55.7
